From: patent US4296108A

Test system: houseflies (Musca domestica)
Test: Contact action on houseflies (Musca domestica), topical to ventral abdomen
Type: in vivo
Settings: 1 μl in acetone to ventral abdomen; 4-day old imagoes; 4 hours; worked out by graph
Labelling: LD50 reported below 0.06 μg/fly becomes Fulfilled; at or above becomes Not fulfilled.

Query: Below 0.06 μg/fly on LD50? Entry COP(=O)(OCC1CC1(Cl)Cl)Oc1cc(Cl)c(Cl)cc1Cl (centres unmarked)
Response: Fulfilled

Query: Below 0.06 μg/fly on LD50? Entry COP(=O)(OCC1CC1(Cl)Cl)Oc1ccc([N+](=O)[O-])cc1 (centres unmarked)
Response: Fulfilled

Query: Below 0.06 μg/fly on LD50? Entry COP(=O)(OCC1CC1(Cl)Cl)Oc1ccc(SC)cc1 (centres unmarked)
Response: Fulfilled

Query: Below 0.06 μg/fly on LD50? Entry COP(=O)(OCC1CC1(Cl)Cl)Oc1ccc(C#N)cc1 (centres unmarked)
Response: Not fulfilled

Query: Below 0.06 μg/fly on LD50? Entry `COP(=S)(OC)Oc1cc(Cl)c(Cl)cc1Cl`
Response: Not fulfilled
